test system: BT-549; test: NCI tumour cell line growth inhibition, 48 h
Calls of active or inactive are those of the source. Cut-off read from the data, not from the text of the source: active = GI50 up to about 1.1 µM and inactive = higher.
Value kind: GI50

Example results:
Molecule	Obs value
COC(=O)/C=C/c1ccc2c(c1)CC1(C2)Cc2cc3c(cc2C1=O)CCC3 (stereo not drawn)	> 100 µM (inactive)
Cc1ncc([N+](=O)[O-])n1CCN=[N+]=[N-]	> 100 µM (inactive)
CSc1ccc2c(cc1=O)[C@@H](NC(=O)c1ccc(N)cc1)CCc1cc(O)c(O)c(O)c1-2	16.9 µM (inactive)
Cc1cc(S(=O)(=O)NC2=Nc3ccccc3C(c3ccccc3)N2)c(S)cc1Cl (stereo not drawn)	> 100 µM (inactive)
CCCCCCCCC/C=C1/CC(CO)(COC(=O)c2ccccc2)OC1=O (stereo not drawn)	14.1 µM (inactive)
CCOC(=O)c1c[nH]c2c(Sc3ccccc3)nccc2c1=O	30.7 µM (inactive)
Cc1cc(N(CCC#N)CCC#N)ccc1C(/N=N/c1ccc([N+](=O)[O-])cc1)=N\NC(=O)c1cc(Cl)ccc1C(=O)c1ccccc1	19 µM (inactive)
O=[N+]([O-])c1ccc(N2N=C(c3ccc4ccccc4c3O)CC2c2ccc(Cl)cc2)c([N+](=O)[O-])c1 (stereo not drawn)	> 100 µM (inactive)

Record "O=C1CCCC/C1=C\c1ccc(Br)cc1" , field GI50: 14.5 µM (inactive)

Record "COc1cc(N(CCC#N)CCC#N)ccc1C(/N=N/c1cccc([N+](=O)[O-])c1)=N\NC(=O)c1ccc(C)cc1" , field GI50: 22 µM (inactive)

Record "CCOC(=O)c1c(-c2ccccc2)c(OC)cn1C" , field GI50: > 10 µM (inactive)

Record C1OCN2c3nonc3N3COCN4c5nonc5N1C2C43 (stereo not drawn) , field GI50: > 100 µM (inactive)

Record Cc1nn(C(=O)c2ccc(Cl)cc2)c2c1C(c1cccc([N+](=O)[O-])c1)SC(=N)N2 (stereo not drawn) , field GI50: > 10 µM (inactive)

Record "Cc1n[n+](Cc2ccccc2)c2sc(N)nn12" , field GI50: 38.4 µM (inactive)

Record Cc1cn(C2CC(O)C(COP(=O)(O)OC3CC(n4c[n+]([BH2-]C#N)c5c(=O)[nH]c(N)nc54)OC3CO)O2)c(=O)[nH]c1=O (stereo not drawn) , field GI50: > 100 µM (inactive)

Record "O=C(/C=C/c1cccc(Oc2ccccc2)c1)NCc1ccc(C(=O)NCc2ccccc2)cc1" , field GI50: 60.1 µM (inactive)

Record "COc1cc(C)cc2c(-c3c(O)cc(O)c4c3C[C@H](C)N[C@H]4C)cc(-c3cc(-c4c(O)cc(O)c5c4C[C@H](C)N[C@H]5C)c4cc(C)cc(OC)c4c3O)c(O)c12" , field GI50: > 100 µM (inactive)

Record "COc1ccc(Nc2ccc3ccccc3c2-c2c(O)ccc3ccccc23)cc1" , field GI50: 24.4 µM (inactive)

====

# maps each entry to its GI50
test system: SF-295; test: NCI tumour cell line growth inhibition, 48 h
Activity calls are given as the source filed them. Cut-off read from the data, not from the text of the source: active = GI50 up to about 1.1 µM and inactive = higher.

Example results:
Molecule	GI50
CC(=O)NC(CCCNCc1ccccc1)C(=O)NCc1ccccc1 (configuration not stated)	> 100 µM (inactive)
C/C=C(\C)C(=O)OC1/C=C(\C)CC/C=C(\C)CC2OC(=O)C(C)(OC(C)=O)C12 (configuration not stated)	> 100 µM (inactive)
[N-]=[N+]=CC(=O)CCC(=O)N(c1ccccc1)c1ccccc1	> 10 µM (inactive)

Record "N#Cc1ccccc1C#C/C=C\C#Cc1ccccn1" , field GI50: 20 µM (inactive)

Record CC(C)(C)OC(=O)NC(CSCc1ccc(C(=O)c2ccccc2)cc1)C(=O)N1CCN(CCCCN2c3ccccc3Sc3cc(N=[N+]=[N-])ccc32)CC1 (configuration not stated) , field GI50: > 100 µM (inactive)

Record "COc1cc([C@H]2CC(=O)C[C@H](c3cc(OC)c(OC)c(OC)c3)C23C(=O)c2ccccc2C3=O)cc(OC)c1OC" , field GI50: 47.1 µM (inactive)

Record CC1(C)CCC[C@@]2(C)C1CC[C@@]1(CO1)[C@@H]2/C=C\C(C=O)CC=O (some centres not stated) , field GI50: > 100 µM (inactive)
